Recorded values, source patent EP4810494A1.

Test: Pharmacokinetic test in rats
Assay type: in vivo, SD rats
Settings: rat, plasma, po, i. g., 10 mg/kg
Counter-ions that a name gives are not always drawn.
Please respond with Y when measured half-life is strictly beneath 5 h, and with N in all other cases.

COMPOUND	CLASS ASSIGNMENT
O=C1CCN(c2cc3c(cc2F)N2CCN(C4CC5(CCN(c6ccc(Nc7ccc(-c8cnc9cc(F)ccn89)c8c7C(=O)NC8)nc6)CC5)C4)C[C@H]2CC3)C(=O)N1 [Trifluoroacetic acid salt of compound 19]	N
O=C1CCN(c2cc3c(cc2F)N2CCN(C4CC5(CCN(c6ccc(Nc7ccc(-c8cnc9cc(F)ccn89)c8c7C(=O)NC8)nc6)CC5)C4)C[C@@H]2CC3)C(=O)N1 [Trifluoroacetic acid salt of compound 20]	N
N#Cc1ccn2c(-c3ccc(Nc4ccc(N5CCC(CN6CCN7c8cc(F)c(N9CCC(=O)NC9=O)cc8CC[C@H]7C6)CC5)cn4)c4c3CNC4=O)cnc2c1 [Trifluoroacetic acid salt of compound 39]	Y
CN(C)Cc1nc(Nc2ccc(-c3cnc4cc(F)ccn34)c3c2C(=O)NC3)ccc1[C@@H]1CCOC1 [Control compound 1, reference compound]	Y

Query: Regarding O=C1CCN(c2cc3c(cc2F)N2CCN(CC4CCN(c5ccc(Nc6ccc(-c7cnc8cc(F)ccn78)c7c6C(=O)NC7)nc5)CC4)C[C@H]2CC3)C(=O)N1 [Trifluoroacetic acid salt of compound 6] , kindly confirm whether its half-life is beneath 5 h.
Response: N

* * *

Assay: Pharmacokinetic test in rats
Format: in vivo, SD rats
Conditions: rat, plasma, IV, 1 mg/kg
Counter-ions that a name gives are not always drawn.
MEASURED METRIC: clearance (mL/min/kg)
Numbers only, in mL/min/kg.

Query: Give its clearance value. Item: N#Cc1ccn2c(-c3ccc(Nc4ccc(N5CCC(CN6CCN7c8cc(F)c(N9CCC(=O)NC9=O)cc8CC[C@@H]7C6)CC5)cn4)c4c3CNC4=O)cnc2c1 [Trifluoroacetic acid salt of compound 31]
Response: 5.38

* * *

Assay: Pharmacokinetic test in mice
Assay type: in vivo, ICR mice
Settings: mouse, plasma, po, i. g., 5 mg/kg
Counter-ions that a name gives are not always drawn.
MEASURED METRIC: AUC (ng·h/mL)
Numbers only, in ng·h/mL.

Query: Give its AUC value. Item: N#Cc1ccn2c(-c3ccc(Nc4ccc(N5CCC(CN6CCN7c8cc(F)c(N9CCC(=O)NC9=O)cc8CC[C@@H]7C6)CC5)cn4)c4c3CNC4=O)cnc2c1 [Trifluoroacetic acid salt of compound 31]
Response: 6500

* * *

Assay: Pharmacokinetic test in rats
Type: in vivo, SD rats
Settings: rat, plasma, po, i. g., 5 mg/kg
Counter-ions that a name gives are not always drawn.
MEASURED METRIC: AUC (ng·h/mL)
Give bare numbers, in ng·h/mL.

Query: Give its AUC value. Item: N#Cc1ccn2c(-c3ccc(Nc4ccc(N5CCC(CN6CCN7c8cc(F)c(N9CCC(=O)NC9=O)cc8CC[C@@H]7C6)CC5)cn4)c4c3CNC4=O)cnc2c1 [Trifluoroacetic acid salt of compound 31]
Response: 4390

* * *

Hi there, I'd appreciate the recorded IC50 for every entry that follows.
Target: HPK1 kinase (Homo sapiens, UniProt Q92918)
Construct: purchased Carna 07-410
Sequence (Q92918 1-346 limits assumed): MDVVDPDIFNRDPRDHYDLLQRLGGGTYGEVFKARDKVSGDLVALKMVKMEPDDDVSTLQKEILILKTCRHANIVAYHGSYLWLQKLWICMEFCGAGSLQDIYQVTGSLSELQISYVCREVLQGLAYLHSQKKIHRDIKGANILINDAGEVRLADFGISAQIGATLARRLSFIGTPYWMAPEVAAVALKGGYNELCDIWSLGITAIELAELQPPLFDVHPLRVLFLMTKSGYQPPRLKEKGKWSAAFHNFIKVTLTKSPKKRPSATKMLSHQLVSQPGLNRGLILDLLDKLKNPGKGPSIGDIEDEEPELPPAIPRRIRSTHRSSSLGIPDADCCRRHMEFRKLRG
Assay: HPK1 kinase assay (1 mM ATP)
Assay type: biochemical
Conditions: ATP working concentration: 1 mM
Procedure: Test example 5: HPK1 kinase assay (1 mM ATP) The kinase HPK1 (Carna, Cat.No 07-410) was prepared into 2× kinase solution using 1× kinase buffer. […] Fluorescence readings were detected using an Envision instrument with excitation at 320 nm and emission at 520 nm and 495 nm. IC50 value was calculated using XLFit excel add-in version 5.4.0.8 software. […]
Counter-ions that a name gives are not always drawn.

MOLECULE	IC50
O=C1CC[C@H](NC(=O)c2cc3c(cc2F)N2CCN(C4CC5(CCN(c6ccc(Nc7ccc(-c8cnc9cc(F)ccn89)c8c7C(=O)NC8)nc6)CC5)C4)C[C@@H]2CC3)C(=O)N1 [Trifluoroacetic acid salt of compound 33]	< 0.05 µM

Please turn your attention to the following entry.
Query: Give its IC50 value. Item: N#Cc1ccn2c(-c3ccc(Nc4ccc(N5CCC6(CC5)CC(N5CCN7c8cc(F)c(N9CCC(=O)NC9=O)cc8CC[C@H]7C5)C6)cn4)c4c3CNC4=O)cnc2c1 [Trifluoroacetic acid salt of compound 43]
Response: < 0.05 µM

* * *

Assay: Pharmacokinetic test in mice
Format: in vivo, ICR mice
Conditions: mouse, plasma, po, i. g., 10 mg/kg
Counter-ions that a name gives are not always drawn.
MEASURED METRIC: AUC (ng·h/mL)
One number for each entry, in ng·h/mL.

MOLECULE	MEASURED METRIC	READING
O=C1CCN(c2cc3c(cc2F)N2CCN(CC4CCN(c5ccc(Nc6ccc(-c7cnc8cc(F)ccn78)c7c6C(=O)NC7)nc5)CC4)C[C@H]2CC3)C(=O)N1 [Trifluoroacetic acid salt of compound 6]	AUC	20800
Cn1ccc2c(-c3ccc(Nc4ccc(N5CCC(CN6CCN7c8cc(F)c(N9CCC(=O)NC9=O)cc8CC[C@H]7C6)CC5)cn4)c4c3CNC4=O)ccnc21 [Trifluoroacetic acid salt of compound 35]	AUC	37100
O=C1CCN(c2ccc(N3CCN(CC4CCN(c5ccc(Nc6ccc(-c7cnc8cc(F)ccn78)c7c6C(=O)NC7)nc5)CC4)CC3)cc2F)C(=O)N1 [Trifluoroacetic acid salt of compound 2]	AUC	16800

Please turn your attention to the following entry.
Query: Give its AUC value. Item: O=C1CCC(c2ccc(N3CCN(CC4CCN(c5ccc(Nc6ccc(-c7cnc8cc(F)ccn78)c7c6C(=O)NC7)nc5)CC4)CC3)cc2F)C(=O)N1 (racemic) [Trifluoroacetic acid salt of compound 1]
Response: 14700

* * *

Assay: Pharmacokinetic test in rats
Type: in vivo, SD rats
Conditions: rat, plasma, po, i. g., 10 mg/kg
Counter-ions that a name gives are not always drawn.
MEASURED METRIC: AUC (ng·h/mL)
One number for each entry, in ng·h/mL.

COMPOUND	MEASURED METRIC	READING
O=C1CCN(c2cc3c(cc2F)N2CCN(CC4CCN(c5ccc(Nc6ccc(-c7cnc8cc(F)ccn78)c7c6C(=O)NC7)nc5)CC4)C[C@H]2CC3)C(=O)N1 [Trifluoroacetic acid salt of compound 6]	AUC	8360
O=C1CCN(c2cc3c(cc2F)N2CCN(C4CC5(CCN(c6ccc(Nc7ccc(-c8cnc9cc(F)ccn89)c8c7C(=O)NC8)nc6)CC5)C4)C[C@@H]2CC3)C(=O)N1 [Trifluoroacetic acid salt of compound 20]	AUC	5310
O=C1CCN(c2cc3c(cc2F)N2CCN(C4CC5(CCN(c6ccc(Nc7ccc(-c8cnc9cc(F)ccn89)c8c7C(=O)NC8)nc6)CC5)C4)C[C@H]2CC3)C(=O)N1 [Trifluoroacetic acid salt of compound 19]	AUC	5860

Items follow; give AUC for each.
1. N#Cc1ccn2c(-c3ccc(Nc4ccc(N5CCC(CN6CCN7c8cc(F)c(N9CCC(=O)NC9=O)cc8CC[C@H]7C6)CC5)cn4)c4c3CNC4=O)cnc2c1 [Trifluoroacetic acid salt of compound 39]
2. CN(C)Cc1nc(Nc2ccc(-c3cnc4cc(F)ccn34)c3c2C(=O)NC3)ccc1[C@@H]1CCOC1 [Control compound 1, reference compound]

Response:
1. 7260
2. 61.1

* * *

Hi there, I'd appreciate the recorded Cmax for every entry that follows.
Assay: Pharmacokinetic test in mice
Format: in vivo, ICR mice
Details: mouse, plasma, po, i. g., 10 mg/kg
Structures can show the parent of a compound that is named as a salt.
Give bare numbers, in ng/mL.

COMPOUND	UNITS OF MEASURE	READING
O=C1CC[C@H](NC(=O)c2cc3c(cc2F)N2CCN(CC4CCN(c5ccc(Nc6ccc(-c7cnc8cc(F)ccn78)c7c6C(=O)NC7)nc5)CC4)C[C@H]2CC3)C(=O)N1 [Trifluoroacetic acid salt of compound 8]	ng/mL	1460
O=C1CCN(c2cc3c(cc2F)N2CCN(CC4CC5(CCN(c6ccc(Nc7ccc(-c8cnc9cc(F)ccn89)c8c7C(=O)NC8)nc6)CC5)C4)C[C@@H]2CC3)C(=O)N1 [Trifluoroacetic acid salt of compound 15]	ng/mL	1620
O=C1CCN(c2cc3c(cc2F)N2CCN(CC4CCN(c5ccc(Nc6ccc(-c7cnc8cc(F)ccn78)c7c6C(=O)NC7)nc5)CC4)C[C@@H]2CC3)C(=O)N1	ng/mL	1380
O=C1CCN(c2cc3c(cc2F)N2CCN(CC4CCN(c5ccc(Nc6ccc(-c7cnc8cc(F)ccn78)c7c6C(=O)NC7)nc5)CC4)C[C@H]2CC3)C(=O)N1 [Trifluoroacetic acid salt of compound 6]	ng/mL	1520
O=C1CCC(c2cc3c(cc2F)N2CCN(CC4CCN(c5ccc(Nc6ccc(-c7cnc8cc(F)ccn78)c7c6C(=O)NC7)nc5)CC4)C[C@@H]2CC3)C(=O)N1 (stereo partly drawn) [Trifluoroacetic acid salt of compound 4]	ng/mL	1140
O=C1CCN(c2cc3c(cc2F)N2CCN(C4CC5(CCN(c6ccc(Nc7ccc(-c8cnc9cc(F)ccn89)c8c7C(=O)NC8)nc6)CC5)C4)C[C@H]2CC3)C(=O)N1 [Trifluoroacetic acid salt of compound 19]	ng/mL	3700

Items follow; give Cmax for each.
1. O=C1CCN(c2ccc(N3CCN(CC4CCN(c5ccc(Nc6ccc(-c7cnc8cc(F)ccn78)c7c6C(=O)NC7)nc5)CC4)CC3)cc2F)C(=O)N1 [Trifluoroacetic acid salt of compound 2]
2. O=C1CCC(c2ccc(N3CCN(CC4CCN(c5ccc(Nc6ccc(-c7cnc8cc(F)ccn78)c7c6C(=O)NC7)nc5)CC4)CC3)cc2F)C(=O)N1 (racemic) [Trifluoroacetic acid salt of compound 1]
3. N#Cc1ccn2c(-c3ccc(Nc4ccc(N5CCC(CN6CCN7c8cc(F)c(N9CCC(=O)NC9=O)cc8CC[C@H]7C6)CC5)cn4)c4c3CNC4=O)cnc2c1 [Trifluoroacetic acid salt of compound 39]

Response:
1: 1280; 2: 1070; 3: 2070
